test: NCI Yeast Anticancer Drug Screen. Data for the sgs1 mgt1 strain (AID 161);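 also: 0% = growth of cultures given vehicle only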; conditions: S. cerevisiae sgs1 mgt1 strain; at 50.0 µM unless noted
The panel holds about 79,000 compounds, 15% with a hit somewhere; the sample as a whole holds those more often. Calls of active or inactive are those of the source. Rule as the data show it: active = growth inhibition above about 70%; inactive = the rest.
Choose the fitting class; nothing outside active, inactive is accepted.

COP(=O)(OC)/C(=C/c1cn(C(C)=O)c2ccccc12)NC(C)=O	inactive
O=C1CCC(=O)N1N1C(=O)CCC1=O	inactive
N/N=C1\C(=O)N(c2ccc(Cl)c(Cl)c2)C(=O)C1C(=O)Nc1ccc(Cl)c(Cl)c1 (stereo unspecified)	inactive
Cc1cccc2c1/C(=C1/c3ccccc3C(=O)c3cccc(C)c31)c1ccccc1C2=O	inactive
COc1ccc(CCC(=O)c2ccc(N)cc2)cc1	inactive

input: Name the outcome recorded for CC1CCC(OC(=O)CCC2CCCCC2)CC1 (stereo unspecified) in the assay.
output: inactive

input: # fetch the recorded call for Cc1ccc(S(=O)(=O)OC2C(OCc3ccccc3)OC(CO)C2O)cc1 (stereo unspecified) here
output: inactive

====

test: NCI Yeast Anticancer Drug Screen. Data for the mlh1 rad18 strain (AID 175); settings: S. cerevisiae mlh1 rad18 strain growth inhibition, hits give high values; at 50.0 µM unless noted
Compounds without any hit were thinned out: in the full panel of roughly 79,000, 15% have a hit. The source made the active and inactive calls. Cut-off read from the data, not from the text of the source: active = growth inhibition above about 70%; inactive = the rest.
Experimental Endpoint: growth inhibition

input: Which growth inhibition value belongs to CN(C)C1=C(Cl)C(=O)C(=O)c2cccnc21 ?
output: 38.4% (inactive)

====

assay: NCI Yeast Anticancer Drug Screen. Data for the sgs1 mgt1 strain (AID 161);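 also: 0% = growth of cultures given vehicle only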; settings: S. cerevisiae sgs1 mgt1 strain, hits give high values; at 50.0 µM unless noted
About 79,000 compounds went through this panel and 15% of them were active in at least one assay; those are over-represented in the sample as a whole.
Experimental Endpoint: growth inhibition (%)
// units = %; emit number, no label

Cc1ccc(S(=O)(=O)CCC#N)cc1	-5.65
c1cncc(C2c3[nH]c4ccccc4c3CCN2CCCN2CCCCC2)c1 (stereo unspecified)	2.3
COc1cc2c(=O)[nH]c3cc(N)ccc3c2cc1N	-4.2
CC(=O)NCCc1ccccc1	3.2
FC(F)(F)c1ccc2nc(NCc3ccccc3)c(-c3ccccc3)nc2c1	24.6
CC(=O)OC[C@H](O)[C@@]1(O)CC[C@H]2[C@@H]3CCC4=CC(=O)C=C[C@]4(C)[C@H]3[C@@H](O)C[C@@]21C	23.9
CN(/C(=N/C(=S)NCc1ccccc1)SCc1ccccc1)c1ccccc1	35.6
CC(=O)Nc1ccc(S(=O)(=O)NC(C)=O)cc1	-2.7

input: Entry under review: OC1(c2cccnc2)c2ccccc2Oc2ccccc21 . Reported growth inhibition?
output: 0.7

input: Quick one: growth inhibition for c1cc2c(cc1C1=NNC(c3ccc4c(c3)OCO4)=NN1)OCO2 ?
output: -7.45

input: Dear colleague, I am looking for the recorded growth inhibition of the following compound: CN(CCNC(=O)C1CCCCC1C(=O)O)c1ccccc1 (stereo unspecified)
output: 1

====

Recorded growth inhibition for the following compounds
test: NCI Yeast Anticancer Drug Screen. Data for the sgs1 mgt1 strain (AID 161);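 also: 0% = growth of cultures given vehicle only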; conditions: S. cerevisiae sgs1 mgt1 strain, hits give high values; at 50.0 µM unless noted
Compounds without any hit were thinned out: in the full panel of roughly 79,000, 15% have a hit.
Expressed in %, but write only the number.

NCCCCCCCCCCN	-5.9

input: Request the reported growth inhibition associated with CCC(C)C(O)C(C(=O)O)C1CCCCC1 (centres undefined)
output: 15.4

input: Entry CC(C)OC(=S)SC1CCCCC1=O (centres undefined) has what growth inhibition?
output: -4.35

input: Looking for the measured growth inhibition of COC(C(=O)NN)c1ccccc1 (centres undefined) , can you help?
output: -59.8

input: Consider the compound shown here: CN(C)N=Nc1ccc(/C=C/C(=O)O)cc1 What is its recorded growth inhibition?
output: 11.4

input: Form field: reported growth inhibition of Nc1ccc2c(c1)C(=O)c1cc(Cl)cc(Cl)c1-2
output: -0.5
